The values you see were collected from patent US11267806B2.

Below, each entry is listed with its recorded Cmax.
METHOD SUMMARY: Pharmacokinetic assay in rats
Type: in vivo, SD rat
CONDITION: rat, plasma, po; male SD rats, i.g., 3 mg/kg
Kindly provide the numeric value in ng/mL only, without the unit symbol.

Solved cases below.
[
  {
    "COMPOUND": "[2H]C([2H])([2H])N1CCN(c2ccc(C(=O)Nc3n[nH]c4ccc(Cc5cc(F)cc(F)c5)cc34)c(NC3CCOCC3)c2)CC1 [Compound T-1]",
    "MEASURE": "Cmax",
    "NUMERIC VALUE": 145
  },
  {
    "COMPOUND": "[2H]C1([2H])CC(Nc2cc(N3CCN(C)CC3)ccc2C(=O)Nc2n[nH]c3ccc(Cc4cc(F)cc(F)c4)cc23)CC([2H])([2H])O1 [Compound T-8]",
    "MEASURE": "Cmax",
    "NUMERIC VALUE": 254
  },
  {
    "COMPOUND": "[2H]C([2H])([2H])N1C([2H])([2H])C([2H])([2H])N(c2ccc(C(=O)Nc3n[nH]c4ccc(Cc5cc(F)cc(F)c5)cc34)c(NC3CCOCC3)c2)C([2H])([2H])C1([2H])[2H] [Compound T-3]",
    "MEASURE": "Cmax",
    "NUMERIC VALUE": 237
  },
  {
    "COMPOUND": "CN1CCN(c2ccc(C(=O)Nc3n[nH]c4ccc(Cc5cc(F)cc(F)c5)cc34)c(NC3CCOCC3)c2)CC1 [Entrectinib, reference compound]",
    "MEASURE": "Cmax",
    "NUMERIC VALUE": 236
  }
]

What Cmax value was documented for this compound, [2H]C([2H])(c1cc(F)cc(F)c1)c1ccc2[nH]nc(NC(=O)c3ccc(N4CCN(C)CC4)cc3NC3CCOCC3)c2c1 [Compound T-7] ? 278
